# SUBJECT_OF_TEST: HLA-B*15:01
# PROCEDURE_SUMMARY: IEDB peptide-MHC binding, purified MHC/competitive/fluorescence; filed as Kd, often an IC50 or EC50 that approximates it; bounds were set here for any values at or beyond the usual limits of such assays
# RUN_CONDITIONS: source organism: Reston ebolavirus
PROPERTY_NAME: Kd

> print(dat)
   sequence.entry  property.name  value.observed
1       TTDDSTSYY             Kd         ≥ 20 µM

---

# SUBJECT_OF_TEST: HLA-A*26:01
# PROCEDURE_SUMMARY: IEDB peptide-MHC binding, purified MHC/direct/fluorescence; filed as Kd, often an IC50 or EC50 that approximates it; bounds were set here for any values at or beyond the usual limits of such assays
# RUN_CONDITIONS: source organism: Vibrio cholerae O139
PROPERTY_NAME: Kd

> print(dat)
   sequence.entry  value.observed
1       EKDSNHNVL         ≥ 20 µM

---

# SUBJECT_OF_TEST: HLA-B*51:01
# PROCEDURE_SUMMARY: IEDB peptide-MHC binding, purified MHC/competitive/fluorescence; filed as Kd, often an IC50 or EC50 that approximates it; bounds were set here for any values at or beyond the usual limits of such assays
# RUN_CONDITIONS: source organism: Vibrio vulnificus YJ016
pKd: −log10 of the molar value.
PROPERTY_NAME: pKd

> print(dat)
   sequence.entry  subject.of.test  property.name  value.observed
1       LTDEQKNAV      HLA-B*51:01            pKd          ≤ 4.70

---

# SUBJECT_OF_TEST: HLA-A*30:01
# PROCEDURE_SUMMARY: IEDB peptide-MHC binding, purified MHC/competitive/radioactivity; filed as Kd, often an IC50 or EC50 that approximates it; bounds were set here for any values at or beyond the usual limits of such assays
# RUN_CONDITIONS: source organism: Lymphocytic choriomeningitis virus (strain Armstrong)
pKd: −log10 of the molar value.
pKd for assorted sequences
PROPERTY_NAME: pKd

> print(dat)
   sequence.entry  comparison.operator  value.observed
1      DLMGVPYCNY                    ≤            4.17
2      FTSDVKAAVI                    =            5.30

---

Each record here notes measured IC50.
# SUBJECT_OF_TEST: HLA-A*03:01
# PROCEDURE_SUMMARY: IEDB peptide-MHC binding, purified MHC/competitive/fluorescence; bounds were set here for any values at or beyond the usual limits of such assays
# RUN_CONDITIONS: source organism: Variola virus
PROPERTY_NAME: IC50 (nM)

> print(dat)
   sequence.entry  subject.of.test  value.observed
1       ASLTPKAQR      HLA-A*03:01            2320
2       STHKLSLTK      HLA-A*03:01            2930

---

# SUBJECT_OF_TEST: HLA-B*08:01
# PROCEDURE_SUMMARY: IEDB peptide-MHC binding, purified MHC/direct/fluorescence; filed as Kd, often an IC50 or EC50 that approximates it; bounds were set here for any values at or beyond the usual limits of such assays
# RUN_CONDITIONS: source organism: Influenza A virus (A/equine/New York/1/1999(H3N8))
PROPERTY_NAME: Kd

> print(dat)
   sequence.entry  value.observed
1       RELVRKTRF         ≥ 20 µM

---

# SUBJECT_OF_TEST: HLA-B*15:01
# PROCEDURE_SUMMARY: IEDB peptide-MHC binding, purified MHC/competitive/fluorescence; bounds were set here for any values at or beyond the usual limits of such assays
# RUN_CONDITIONS: source organism: Vaccinia virus
pIC50: −log10 of the molar value.
PROPERTY_NAME: pIC50

> print(dat)
   sequence.entry  value.observed
1       FHKNMIKTY            4.66

---

# SUBJECT_OF_TEST: HLA-B*46:01
# PROCEDURE_SUMMARY: IEDB peptide-MHC binding, purified MHC/direct/fluorescence; filed as Kd, often an IC50 or EC50 that approximates it; bounds were set here for any values at or beyond the usual limits of such assays
# RUN_CONDITIONS: source organism: Camelpox virus M-96
PROPERTY_NAME: Kd (µM)

> print(dat)
   sequence.entry  unit.abbreviation  value.observed
1       SQIETGTPF                 µM            3.06

---

# SUBJECT_OF_TEST: HLA-A*23:01
# PROCEDURE_SUMMARY: IEDB peptide-MHC binding, purified MHC/competitive/radioactivity; filed as Kd, often an IC50 or EC50 that approximates it; bounds were set here for any values at or beyond the usual limits of such assays
# RUN_CONDITIONS: source organism: Dengue virus 4 Philippines/H241/1956
pKd: −log10 of the molar value.
PROPERTY_NAME: pKd

> print(dat)
   sequence.entry  value.observed
1       TWLVHKQWF            6.55
2       MALKDFKEF            6.81
3      LCLIPTAMAF            5.97
4       TFIRSTMPL            6.59
5       CLIPTAMAF            6.35

---

# SUBJECT_OF_TEST: HLA-B*18:01
# PROCEDURE_SUMMARY: IEDB peptide-MHC binding, purified MHC/competitive/fluorescence; filed as Kd, often an IC50 or EC50 that approximates it; bounds were set here for any values at or beyond the usual limits of such assays
# RUN_CONDITIONS: source organism: Yersinia pestis Nepal516
PROPERTY_NAME: Kd (nM)

> print(dat)
   sequence.entry  property.name  value.observed
1       LELIGNAES             Kd             921

---

# SUBJECT_OF_TEST: HLA-A*32:01
# PROCEDURE_SUMMARY: IEDB peptide-MHC binding, purified MHC/competitive/radioactivity; filed as Kd, often an IC50 or EC50 that approximates it; bounds were set here for any values at or beyond the usual limits of such assays
# RUN_CONDITIONS: source organism: Vaccinia virus WR
Class definitions on Kd: low: < 7 nM; mid: ≥ 7 nM and < 1000 nM; high: ≥ 1000 nM

> print(dat)
    sequence.entry  label.value
 1       IKVLVEHGF         high
 2       KTINYSFFL          low
 3       STMDVNHPI          mid
 4       VMYAFTTPL          low
 5       MLMFIFTGI         high
 6       RLHSNTILK         high
 7       LSNYIVSIF          mid
 8       LLYTANFTF          low
 9       KMSYSSVMI          mid
10       IVYSLVTTI          low

---

# SUBJECT_OF_TEST: HLA-B*07:02
# PROCEDURE_SUMMARY: IEDB peptide-MHC binding, purified MHC/direct/fluorescence; filed as Kd, often an IC50 or EC50 that approximates it; bounds were set here for any values at or beyond the usual limits of such assays
# RUN_CONDITIONS: source organism: Cryptosporidium parvum
PROPERTY_NAME: Kd (µM)

> print(dat)
   sequence.entry  subject.of.test  value.observed
1       RKWGLDFCY      HLA-B*07:02               9

---

pKd overview
# SUBJECT_OF_TEST: HLA-A*02:01
# PROCEDURE_SUMMARY: IEDB peptide-MHC binding, purified MHC/competitive/fluorescence; filed as Kd, often an IC50 or EC50 that approximates it; bounds were set here for any values at or beyond the usual limits of such assays
# RUN_CONDITIONS: source organism: Zaire ebolavirus
pKd: −log10 of the molar value.
PROPERTY_NAME: pKd

> print(dat)
   sequence.entry  value.observed
1       LESLTDREL          ≤ 4.70
2       ILNRKAIDF          ≤ 4.70
3       DLEKYNLAF          ≤ 4.70

---

# SUBJECT_OF_TEST: HLA-B*44:03
# PROCEDURE_SUMMARY: IEDB peptide-MHC binding, purified MHC/competitive/radioactivity; filed as Kd, often an IC50 or EC50 that approximates it; bounds were set here for any values at or beyond the usual limits of such assays
# RUN_CONDITIONS: source organism: Dengue virus 3 Martinique/1243/1999
PROPERTY_NAME: Kd (µM)

> print(dat)
   sequence.entry  subject.of.test  property.name  unit.abbreviation  value.observed
1      EEMFKKRNLT      HLA-B*44:03             Kd                 µM            4.53
2      RENLLLGVGL      HLA-B*44:03             Kd                 µM           0.292
3      GEIGAIALDF      HLA-B*44:03             Kd                 µM         0.00892

Source listed as the Immune Epitope Database (IEDB).
